Consider the following molecules; for each one, report its Activity.
Target: Adenosine receptor A3 (Homo sapiens) (UniProt P0DMS8)
Sequence (P0DMS8 whole entry): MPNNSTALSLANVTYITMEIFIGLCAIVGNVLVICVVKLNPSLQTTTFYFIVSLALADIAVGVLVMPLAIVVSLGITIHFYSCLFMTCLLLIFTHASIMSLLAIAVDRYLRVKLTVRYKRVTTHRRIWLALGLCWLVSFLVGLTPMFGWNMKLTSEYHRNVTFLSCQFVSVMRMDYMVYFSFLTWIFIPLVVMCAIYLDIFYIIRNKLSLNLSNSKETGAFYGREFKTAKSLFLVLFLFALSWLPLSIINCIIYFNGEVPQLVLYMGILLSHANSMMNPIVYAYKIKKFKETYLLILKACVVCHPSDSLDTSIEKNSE
Test: Agonist activity at human adenosine A3 receptor expressed in CHO cells assessed as decrease in forskolin induced cAMP formation preincubated for 10 mins followed by forskolin challenge measured after 15 mins by AlphaScreen assay relative to adenosine-5'-N- ethyluronamide
Type: functional, cell-based
Parameters: concentration or dose not given beside the values
# number only, unit % dropped from output

What measured Activity goes with CNC(=O)[C@H]1[Se][C@@H](n2cnc3c(NCc4cccc(Br)c4)nc(Cl)nc32)[C@H](O)[C@@H]1O ?
106

What measured Activity goes with CNC(=O)[C@H]1[Se][C@@H](n2cnc3c(NC4CCCC4)nc(Cl)nc32)[C@H](O)[C@@H]1O ?
92.5

What measured Activity goes with CNC(=O)[C@H]1[Se][C@@H](n2cnc3nc(Cl)nc(NCc4cccc(I)c4)c32)[C@H](O)[C@@H]1O ?
14

What measured Activity goes with CNC(=O)[C@H]1[Se][C@@H](n2cnc3ncnc(NCc4cccc(I)c4)c32)[C@H](O)[C@@H]1O ?
0.2

What measured Activity goes with CNC(=O)[C@H]1[Se][C@@H](n2cnc3c(NC4CCCC4)ncnc32)[C@H](O)[C@@H]1O ?
77

What measured Activity goes with CNC(=O)[C@H]1[Se][C@@H](n2cnc3c(NCc4ccccc4Cl)ncnc32)[C@H](O)[C@@H]1O ?
85

What measured Activity goes with CNC(=O)[C@H]1[Se][C@@H](n2cnc3c(NCc4ccccc4OC)ncnc32)[C@H](O)[C@@H]1O ?
97

What measured Activity goes with CNC(=O)[C@H]1[Se][C@@H](n2cnc3c(NCc4cccc(F)c4)nc(Cl)nc32)[C@H](O)[C@@H]1O ?
106

What measured Activity goes with CNC(=O)[C@H]1[Se][C@@H](n2cnc3c(NCc4cccc(Cl)c4)nc(Cl)nc32)[C@H](O)[C@@H]1O ?
99.7

What measured Activity goes with CNC(=O)[C@H]1[Se][C@@H](n2cnc3c(NC4CCC4)nc(Cl)nc32)[C@H](O)[C@@H]1O ?
86.7

What measured Activity goes with CNC(=O)[C@H]1[Se][C@@H](n2cnc3c(NCc4cccc(I)c4)nc(Cl)nc32)[C@H](O)[C@@H]1O ?
94.1

What measured Activity goes with CNC(=O)[C@H]1[Se][C@@H](n2cnc3c(NC4CCC4)ncnc32)[C@H](O)[C@@H]1O ?
82

What measured Activity goes with CNC(=O)[C@H]1[Se][C@@H](n2cnc3c(NCc4cccc(Cl)c4)ncnc32)[C@H](O)[C@@H]1O ?
80

What measured Activity goes with CNC(=O)[C@H]1[Se][C@@H](n2cnc3c(NCc4cccc(I)c4)ncnc32)[C@H](O)[C@@H]1O ?
91

What measured Activity goes with CNC(=O)[C@H]1S[C@@H](n2cnc3c(NCc4cccc(I)c4)ncnc32)[C@H](O)[C@@H]1O ?
100

What measured Activity goes with CNC(=O)[C@H]1[Se][C@@H](n2cnc3c(NCc4cccc(F)c4)ncnc32)[C@H](O)[C@@H]1O ?
74

What measured Activity goes with CNC(=O)[C@H]1[Se][C@@H](n2cnc3c(NCc4cccc(Br)c4)ncnc32)[C@H](O)[C@@H]1O ?
91

What measured Activity goes with CNC(=O)[C@H]1[Se][C@@H](n2cnc3c(NC4CC4)nc(Cl)nc32)[C@H](O)[C@@H]1O ?
83.6

What measured Activity goes with CNC(=O)[C@H]1[Se][C@@H](n2cnc3c(N[C@@H]4C[C@H]4c4ccccc4)ncnc32)[C@H](O)[C@@H]1O ?
89

What measured Activity goes with CNC(=O)[C@H]1[Se][C@@H](n2cnc3c(NC4CC4)ncnc32)[C@H](O)[C@@H]1O ?
92

What measured Activity goes with CNC(=O)[C@H]1[Se][C@@H](n2cnc3c(NCc4ccc5ccccc5c4)ncnc32)[C@H](O)[C@@H]1O ?
109

What measured Activity goes with CNC(=O)[C@H]1[Se][C@@H](n2cnc3c(NC)ncnc32)[C@H](O)[C@@H]1O ?
108
